Data provenance is the nanobody polyreactivity screen of Harvey et al. (2022).

run_description: yeast display, Sf9 membrane polyspecificity reagent, FACS + sequencing; frameworks hold sequencing errors
measured_quantity: polyreactivity (PSR sort gate)

polymer_sequence=QVLLQESGGGLVQAVGSLRLGCAASGTISPAYDIGRNHLAPGREREFVAAMTYGTNSYYSDSVKGRFTMSRDNAKNTVFLKMTSLKTEDTAVFYFSATGGYNCAHDYWGQGTQVTVSS reading="low polyreactivity"
polymer_sequence=QVQLVESGGGLVQAGGSLRLSSAASGSTFRGNAMGWYRQAPGKERELVAAISAIGGSTYYADSVKGRFTISRDNAKNTVYLQMNSLKPEDTAVYYCAARYLYLLGGFNYWGQGTQVTVSS reading="high polyreactivity"
polymer_sequence=QVQLVESGGGLVQAGGSLRLSCAASGRTFWTNAMGWYRQAPGKERELVAAISWTTGSTNYADSVKGRFTISRDNAKNTVYLQMNSLKPEDTAVYYWAADSQYGWPEYEYDYWGQGTQVTVSS reading="low polyreactivity"
polymer_sequence=QVQLVESGGGLVQAGGSLRLSCAASGRTFSGNAMGWYRQAPGKEREFVAVISSNGGSTYYADSVKGRFTISRDNAKNTVYLQMNSLKPEDTAVYYCNARYWRGWGGRVSKYGYWGQGTQVTVSS reading="high polyreactivity"
polymer_sequence=QVQLVESGGGLVQAGGSLRLSSAPSGSIFWGYAMGWYRQAPGKERELVATIRNRGGSTYYADSVKGRFTISRDNAKNTVYFQMNSRKPDDTAVYYCAAVSYRQYYGWGNYWGQGSQVTVSS reading="low polyreactivity"

====

run_description: yeast display, Sf9 membrane polyspecificity reagent, FACS + sequencing; frameworks hold sequencing errors
measured_quantity: polyreactivity (PSR sort gate)

polymer_sequence=QVQLVESAGGLVQAGGSLRLSCAASGITFSGYAMGWYRQAPGKERELVAAISWRGVRTYYADSVKGRFTISRDNAKNTVYLQMNSLKPEDTAVYYCAAVRYITKEFYWGQGTQVTVSS reading="high polyreactivity"
polymer_sequence=QVQLVESGGGLVQAGGSLRLSCADSGRTLVRYTMRGYRQAPGKERDLVASISQRGGTTYYADSVKGRFTISRDNAKNTVYLQMNSLKPEDTAVYYCAAGIHGRYARDWYEYWGQGTQVTVSS reading="low polyreactivity"
polymer_sequence=QVQLVESGGGVVQAGGSLRLSCAASGRIFVVYVMGWYRQAPGKEREFVAAITWGGGNTYYADSVKGRFTISRDNAKNTVYLQMNSLKPEDTAVYYCAAADGDDTTFRYDYWGQGTQVTVSS reading="low polyreactivity"
polymer_sequence=QVQLVESGGGLVQAGGSLRLSCAASGFTFPYNAMGWYRQAPGKERELVAAISRGGGRTYYADSVKGRFTISRDNAKNTVYLQMNSLKPEDTAVYYCAKAPGQDTPYPYGYWGQGTQVTVSS reading="high polyreactivity"
polymer_sequence=QVQVVESGGGLVQAGGSLRLSCAASGSIFRDNAMGCYRQAPGKERELVASIRSSGGRTYYADSVKGRFTISRDNAKNTVYLQMNSLKPEDTAVYYCARRWYPVTPYARMYYWGQGTQVTVSS reading="low polyreactivity"
polymer_sequence=QVQLVESGGGLVQAGGSLRLSCAASGRTIEGYAMGCYRQAPGKERELVAAISRRGGSTYYADSVKGRFTISRDNAKNTVYLQMNSLKPEDTAVYYCAARDGSTGAVRYYYWGQGTQVTVSS reading="high polyreactivity"
polymer_sequence=QVQHVESGRGLVPAGGSLRLSCAASGSTFNLNAMGWYRQAPGKERELVAAISWRGDSTSYADSVKGRFTISRDNAKNTVYLQMNSLKPEDTAVYFCATAHDSAFYRYWYVPSEYNYWGQGTQVTVSS reading="low polyreactivity"
polymer_sequence=QVQLVESGGGLVQAGGSLRLSCAASGFTIDKNVMGWYRQAPGKERELVAAISVRGGTTYYADSVKGRFTISRDNAKNTVYLQMNSLKPEDTAVYYCAARAYGPPARYDSWGQGTQVTVSS reading="low polyreactivity"
polymer_sequence=QVQLVESGGGLVQAGGSLRLSCAASGYTFLHYAMGWYRQAPGKERELVAAISGSGGRTYYADSVKGRFTISRDNAKNTVYLQMNSLKPEDTAVYYCAAPYSSRNYYYWGQGTQVTVSS reading="high polyreactivity"
polymer_sequence=QVQLVESGGGLVQAGGSLRLSCAASGRTFDLYAMGWYRQAPGKERELVAAITKGGGSTYYADSVKGRFTLSRDNAKNTVYLQMHSLKPVDTAVYYCAARKYKRIYRISSGIGYYWGQGTQVTVSS reading="high polyreactivity"
polymer_sequence=QVQLVESGGGLVQAGGSLRLSCAASGSTFSTYAMGWYRQAPGKERELVAAITAGGGSTYYADSVKGRFTISRDNAKNTVYLQMNSLKPEDTAVYYCAARSYYRFGGGYWGQGTQVTVSS reading="high polyreactivity"
